- Measured Target: Relaxin receptor 1 (Homo sapiens)
- Sequence (Q9HBX9 whole entry): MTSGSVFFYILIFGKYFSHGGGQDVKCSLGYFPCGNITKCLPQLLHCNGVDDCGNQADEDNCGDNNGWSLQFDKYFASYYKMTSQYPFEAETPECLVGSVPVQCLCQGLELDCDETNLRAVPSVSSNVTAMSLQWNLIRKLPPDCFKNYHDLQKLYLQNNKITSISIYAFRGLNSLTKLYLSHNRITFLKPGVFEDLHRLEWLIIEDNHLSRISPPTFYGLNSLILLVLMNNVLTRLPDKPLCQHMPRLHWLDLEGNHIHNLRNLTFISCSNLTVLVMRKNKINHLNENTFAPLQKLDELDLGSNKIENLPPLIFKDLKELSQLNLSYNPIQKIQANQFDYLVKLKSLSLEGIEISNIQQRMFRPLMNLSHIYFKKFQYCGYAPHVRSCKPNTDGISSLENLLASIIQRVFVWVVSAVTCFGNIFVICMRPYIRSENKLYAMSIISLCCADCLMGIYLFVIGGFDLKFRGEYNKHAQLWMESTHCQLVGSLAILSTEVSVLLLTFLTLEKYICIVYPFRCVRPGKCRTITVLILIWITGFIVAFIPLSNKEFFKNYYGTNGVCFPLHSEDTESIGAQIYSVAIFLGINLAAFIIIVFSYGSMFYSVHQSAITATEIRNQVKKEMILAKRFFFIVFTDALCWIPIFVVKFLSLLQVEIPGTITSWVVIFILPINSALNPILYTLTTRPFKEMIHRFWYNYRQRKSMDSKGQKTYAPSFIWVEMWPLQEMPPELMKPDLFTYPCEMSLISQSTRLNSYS
- Type: functional, cell-based, HEK293
- Protocol Conditions: read-out: EC50
Measured Endpoint: log10 of EC50 (log10 of the value in µM)

# Cpd Smiles, Numeric Result
rows = [
    ("CCOc1ccccc1C(=O)Nc1sccc1C(=O)Nc1cccc(S(=O)(=O)C(F)(F)F)c1", 0.37),
    ("COCCNc1ccccc1C(=O)Nc1cccc(C(F)(F)F)c1", 1.77),
    ("O=C(Nc1cccc(-c2ccccc2C(F)(F)F)c1)c1ccccc1NC(=O)C1CCCCC1", 0.42),
    ("O=C(Nc1ccccc1C(=O)Nc1cccc(C(F)(F)F)c1)c1cccnc1", 0.77),
    ("CCCCC(=O)Nc1ccccc1C(=O)Nc1cccc(C(F)(F)F)c1", 0.72),
    ("O=C(Nc1cccc(F)c1)c1ccccc1NC(=O)C1CCCCC1", 1.12),
    ("O=C(Nc1cccc(C(F)(F)F)c1)c1ccccc1NC(=O)C1CCCC1", 0.37),
    ("CCOc1ccccc1C(=O)Nc1cccnc1C(=O)Nc1cccc(S(=O)(=O)C(F)(F)F)c1", 0.67),
    ("COc1ccccc1C(=O)Nc1ccccc1C(=O)Nc1cccc(C(F)(F)F)c1", -0.48),
    ("O=C(Nc1cccc([N+](=O)[O-])c1)c1ccccc1NC(=O)C1CCCCC1", 0.77),
    ("O=C(Nc1cccc(C(F)(F)F)c1)c1ccccc1NC(=O)C1CCCCCC1", 0.32),
    ("CCOc1ccccc1C(=O)Nc1ncccc1C(=O)Nc1cccc(S(=O)(=O)C(F)(F)F)c1", 0.22),
    ("Cc1ccccc1C(=O)Nc1ccccc1C(=O)Nc1cccc(C(F)(F)F)c1", 0.62),
    ("O=C(Nc1cccc(Cl)c1)c1ccccc1NC(=O)C1CCCCC1", 0.52),
    ("Cc1ccc(NC(=O)c2ccccc2NC(=O)C2CCCCC2)cc1", 2.27),
    ("O=C(Nc1cccc(SC(F)(F)F)c1)c1ccccc1NC(=O)C1CCCCC1", 0.27),
    ("O=C(NCc1ccco1)c1ccccc1NC(=O)c1ccccc1NC(=O)C1CCCCC1", 0.97),
    ("O=C(Nc1ccccc1C(=O)Nc1cccc(C(F)(F)F)c1)c1ccccc1", 0.12),
    ("COc1cccc(NC(=O)c2ccccc2NC(=O)C2CCCCC2)c1", 1.57),
    ("CN(C)CCOc1ccccc1C(=O)Nc1ccccc1C(=O)Nc1cccc(C(F)(F)F)c1", 0.57),
    ("COc1cccc(C(=O)Nc2ccccc2C(=O)Nc2cccc(C(F)(F)F)c2)c1", 0.27),
]
